B1: ZBTB22 (parent)
chain: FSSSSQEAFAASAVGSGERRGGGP

- Variants of: B1
- Assay name: protein stability index of a GFP-peptide fusion (GPS, HEK-293T) (PSI 1-6); higher = more stable;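 also: lentivirally expressed fusions sorted by FACS into six bins by GFP to DsRed ratio, PSI derived from sequencing read proportions per bin multiplied by bin number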
- Run parameters: c terminus: a fixed tail appended
In this section we review reported protein stability index values for a set of variants.
Endpoint name: protein stability index

{"columns": ["Variant label", "Measured number"],
 "data": [
  ["E18W", 2.92],
  ["G17A", 3.02],
  ["E7K", 2.82],
  ["S4T", 3.29],
  ["S12M", 2.63],
  ["A10M", 3.16],
  ["A10V", 2.58],
  ["G23Q", 3.26],
  ["V14Q", 3.52],
  ["P24R", 3.03],
  ["S16D", 3.63],
  ["A8F", 2.55],
  ["S5T", 4.41],
  ["A8D", 5.19],
  ["S4H", 3.21],
  ["S16P", 3.4],
  ["G21E", 3.68],
  ["G22L", 3.65],
  ["E18T", 2.87],
  ["R19K", 3.41],
  ["A10K", 3.2],
  ["A13L", 3.13],
  ["R19T", 3.78],
  ["G22T", 3.72],
  ["A10Q", 4.09],
  ["A11F", 2.19],
  ["F1K", 5.04],
  ["S12F", 1.47],
  ["E18K", 3.31],
  ["A10N", 3.97],
  ["S12I", 2.26],
  ["Q6A", 2.74]
]}
